Source: patent US7923464B2

biological target: benzodiazepine modulatory unit (GABAA receptor complex), labelled with 3H-flunitrazepam; experiment: In vitro inhibition of 3H-flunitrazepam (3H-FNM) binding; conditions: cerebral cortex membranes from male Wistar rats; 3H-FNM 1 nM; 40 min at 2° C.
// classify: if (IC50 < 7 nM) T else F

Solved entries (count: 4):
COc1ccccc1-c1cccc(-n2cnc3cc([C@H](C)NC(C)=O)ccc32)c1 [Compound 12g]	T
CC(N)c1ccc2c(c1)ncn2-c1cccc(-c2ccccc2)c1 (centres unmarked) [Compound 3a]	F
COc1ccccc1-c1cccc(-n2cnc3cc([C@@H](C)NC(C)=O)ccc32)c1 [Compound 12b]	F
COc1ccccc1-c1cccc(-n2cnc3cc([C@@H](C)N)ccc32)c1 [Compound 12o]	T

Consider the additional compound presented here.
-- ask IC50 strictly < 7 nM for this compound? C[C@@H](N)c1ccc2c(c1)ncn2-c1cccc(-c2ccccc2C#N)c1 [Compound 12r]
-- reply T
